Test: in vivo
Assay type: in vivo, Long Evans rats
Settings: male, Long Evans, rat, in vivo, 1 mg/kg, i.v.; young Long Evans rats; read-out: Plasma exposure (SEM)
QUANTITY_NAME: concentration at 35 min (ng/mL)
Number in ng/mL, nothing else.

Summary for this molecule, "COC(=O)c1c(-c2ccccc2)cnnc1-c1ccccc1" : concentration at 35 min is 62.8

###

Assay: in vivo
Format: in vivo, Long Evans rats
Settings: male, Long Evans, rat, in vivo, 10 mg/kg, i.v.; young Long Evans rats; read-out: Plasma exposure (SEM)
QUANTITY_NAME: concentration at 35 min (ng/mL)
Just the number please, in ng/mL, no unit attached.

response.value for "COC(=O)c1c(-c2ccccc2)cnnc1-c1ccccc1" (field: concentration at 35 min) = 764

###

Assay: in vivo
Type: in vivo, Long Evans rats
Conditions: Long Evans, rat, in vivo; read-out: brain/plasma ratios
QUANTITY_NAME: Kp

Sample "COC(=O)c1c(-c2ccccc2)cnnc1-c1ccccc1" ; Kp observed: > 1

###

Assay: in vivo
Type: in vivo, Long Evans rats
Details: male, Long Evans, rat, cerebellum, iv; tracer 1 μg/kg, i.v., after vehicle administration; read-out: levels of Ro 15-4513 in cerebellum
QUANTITY_NAME: concentration at 20 min (ng/g)
Give a bare numeral; the unit ng/g is implied.

Documented concentration at 20 min of "CCOC(=O)c1ncn2c1CN(C)C(=O)c1cc(N=[N+]=[N-])ccc1-2" : 0.36

###

Assay: in vivo
Type: in vivo, Long Evans rats
Conditions: male, Long Evans, rat, in vivo, 10 mg/kg, i.v.; young Long Evans rats; read-out: Hippocampus exposure (SEM)
QUANTITY_NAME: concentration at 35 min (ng/g)
Give the number; ng/g is assumed, so skip it.

Per the records, this molecule ( "COC(=O)c1c(-c2ccccc2)cnnc1-c1ccccc1" ) has concentration at 35 min equal to 947

###

Assay: in vivo
Format: in vivo, Long Evans rats
Conditions: male, Long Evans, rat, in vivo, 0.1 mg/kg, i.v.; young Long Evans rats; read-out: Hippocampus exposure (SEM)
QUANTITY_NAME: concentration at 35 min (ng/g)
I only need the number, in ng/g, no unit after it.

In plain terms, "COC(=O)c1c(-c2ccccc2)cnnc1-c1ccccc1" has a documented concentration at 35 min of 14.6
